B1: NLV2 TCR alpha chain (CDR3α only) (parent)
chain: AGPMKTSYDKVI

# Variants of: B1
# Test Protocol: T-Switch: Jurkat TCRβ−/− cells expressing a CDR3 saturation-mutagenesis library, stained with two peptide-HLA-A*02:01 tetramers (original and novel peptide) plus anti-CD3, FACS-sorted into four gates, gDNA sequenced
# Condition Details: with both tetramers (double-negative gate, binds neither): HLA-A*02:01 with … and with …, tetramers 1 µg/mL, 30 min on ice, SP, DP and SW gates expanded about 10 days between rounds ('two to three rounds of selection' in the Methods), gate DN: OPPOSITE: higher = more of the variant in the gate that binds neither peptide = LESS binding (or no expression; inferred). Fold enrichment of the CDR3 variant in one FACS gate of a two-tetram, unresolved parent, parent is a CDR3 fragment, scale: fold enrichment, numbering: sequential-on-construct, sequence starts at 1
Where enrichment equals or exceeds 1, the correct label is Fulfilled; where it does not, the label is Not fulfilled.

Example entries and their recorded answers appear below.
* […] (CDR3 as printed); T6N derived by comparing it with the table's wild-type CDR3 AGPMKTSYDKVI | Not fulfilled
* […] (CDR3 as printed); A1H derived by comparing it with the table's wild-type CDR3 AGPMKTSYDKVI | Not fulfilled
* […] (CDR3 as printed); K10W derived by comparing it with the table's wild-type CDR3 AGPMKTSYDKVI | Fulfilled

Could you please find out whether […] (CDR3 as printed); A1T derived by comparing it with the table's wild-type CDR3 AGPMKTSYDKVI has enrichment that meets 1 or exceeds it?
Not fulfilled

Okay, and […] (CDR3 as printed); P3R derived by comparing it with the table's wild-type CDR3 AGPMKTSYDKVI ?
Fulfilled

Okay, and […] (CDR3 as printed); D9Q derived by comparing it with the table's wild-type CDR3 AGPMKTSYDKVI ?
Not fulfilled

Okay, and […] (CDR3 as printed); Y8D derived by comparing it with the table's wild-type CDR3 AGPMKTSYDKVI ?
Not fulfilled

Okay, and […] (CDR3 as printed); S7N derived by comparing it with the table's wild-type CDR3 AGPMKTSYDKVI ?
Fulfilled

Okay, and […] (CDR3 as printed); V11R derived by comparing it with the table's wild-type CDR3 AGPMKTSYDKVI ?
Fulfilled

Okay, and […] (CDR3 as printed); Y8T derived by comparing it with the table's wild-type CDR3 AGPMKTSYDKVI ?
Fulfilled

Okay, and […] (CDR3 as printed); G2V derived by comparing it with the table's wild-type CDR3 AGPMKTSYDKVI ?
Not fulfilled

Cited source for all entries: paper PMC13397619
